Source: the supplement of paper PMC10724198

- Test system: Saccharomyces cerevisiae
- protocol_text: protein stability index of tFT-peptide fusion (C-terminal peptide) (PSI (0-1 scale)); higher = more stable (slower turnover)
- measurement_setup: genetic background: wild type; temperature: 30 C
protein stability index vs 0.6: at or above is label 1, below is label 0.

macromolecule_sequence: LYSVLWFCFPLV
assigned_category: label 0
--
macromolecule_sequence: TIRKKKNRRNKE
assigned_category: label 1
--
macromolecule_sequence: CNGRREAGHVDM
assigned_category: label 1
--
macromolecule_sequence: TPLLAALRPTTS
assigned_category: label 1
--
macromolecule_sequence: GLTSRIAAGRQR
assigned_category: label 1
--
macromolecule_sequence: FSTVIDFLAYLF
assigned_category: label 1
--
macromolecule_sequence: NKKKREYKGMNF
assigned_category: label 1
--
macromolecule_sequence: TSLSVGVFSSPV
assigned_category: label 1
--
macromolecule_sequence: NKKKKTAIPPKR
assigned_category: label 1
--
macromolecule_sequence: LFYFPVLSGFLA
assigned_category: label 0
--
macromolecule_sequence: GYDLSASRALLA
assigned_category: label 1
--
macromolecule_sequence: KCVQESIIKMMI
assigned_category: label 1

----------
- System: Saccharomyces cerevisiae
- protocol_text: protein stability index of tFT-peptide fusion (C-terminal peptide) (PSI (0-1 scale)); higher = more stable (slower turnover)
- measurement_setup: genetic background: wild type; temperature: 30 C
protein stability index for assorted sequences

macromolecule_sequence: GTCQALARRTGD
test_system: Saccharomyces cerevisiae
protein stability index: 0.686

macromolecule_sequence: QLASISPSPNPS
test_system: Saccharomyces cerevisiae
protein stability index: 0.692

macromolecule_sequence: LPLVLSPSPPHP
test_system: Saccharomyces cerevisiae
protein stability index: 0.711

macromolecule_sequence: KKKKKKKKKPEK
test_system: Saccharomyces cerevisiae
protein stability index: 0.708

macromolecule_sequence: KKKKVKKQRISR
test_system: Saccharomyces cerevisiae
protein stability index: 0.713

macromolecule_sequence: WPRPSLPPLYAP
test_system: Saccharomyces cerevisiae
protein stability index: 0.685

macromolecule_sequence: QVYGEWASAGWG
test_system: Saccharomyces cerevisiae
protein stability index: 0.718

macromolecule_sequence: TIKNKKRKPKKK
test_system: Saccharomyces cerevisiae
protein stability index: 0.702

macromolecule_sequence: PFSLTTLFSPLL
test_system: Saccharomyces cerevisiae
protein stability index: 0.691

macromolecule_sequence: WVGRGGAVENKV
test_system: Saccharomyces cerevisiae
protein stability index: 0.718

macromolecule_sequence: VSRGRVKETGEE
test_system: Saccharomyces cerevisiae
protein stability index: 0.713

macromolecule_sequence: SRPPPYAPPSPP
test_system: Saccharomyces cerevisiae
protein stability index: 0.716

macromolecule_sequence: SSPPTHAPPLPP
test_system: Saccharomyces cerevisiae
protein stability index: 0.688

macromolecule_sequence: FSQNFVSTGFRL
test_system: Saccharomyces cerevisiae
protein stability index: 0.702

macromolecule_sequence: PPTPGPPPLRYP
test_system: Saccharomyces cerevisiae
protein stability index: 0.705

macromolecule_sequence: GFMSFAVTCGLL
test_system: Saccharomyces cerevisiae
protein stability index: 0.688

macromolecule_sequence: EGTTRDGERCRT
test_system: Saccharomyces cerevisiae
protein stability index: 0.696

macromolecule_sequence: CGHVRSLAMAHN
test_system: Saccharomyces cerevisiae
protein stability index: 0.68

macromolecule_sequence: PPARIFRSLPTP
test_system: Saccharomyces cerevisiae
protein stability index: 0.711

macromolecule_sequence: AGCLSGPVDILL
test_system: Saccharomyces cerevisiae
protein stability index: 0.703

macromolecule_sequence: KHRSIRPYLKND
test_system: Saccharomyces cerevisiae
protein stability index: 0.72

macromolecule_sequence: PHHRRVVRPPTA
test_system: Saccharomyces cerevisiae
protein stability index: 0.704

macromolecule_sequence: GAGGGGNLGWLR
test_system: Saccharomyces cerevisiae
protein stability index: 0.679

macromolecule_sequence: RIWKKKRYNEKS
test_system: Saccharomyces cerevisiae
protein stability index: 0.681

macromolecule_sequence: HLSPPLPPAPTS
test_system: Saccharomyces cerevisiae
protein stability index: 0.702

macromolecule_sequence: HLPPFSGIHLTP
test_system: Saccharomyces cerevisiae
protein stability index: 0.719

macromolecule_sequence: WPYEPGSSIVNG
test_system: Saccharomyces cerevisiae
protein stability index: 0.717

macromolecule_sequence: GWVFLRVARFGL
test_system: Saccharomyces cerevisiae
protein stability index: 0.684

macromolecule_sequence: MENAMHQLNRNT
test_system: Saccharomyces cerevisiae
protein stability index: 0.679

macromolecule_sequence: TTYKRRTSKTLS
test_system: Saccharomyces cerevisiae
protein stability index: 0.679

macromolecule_sequence: APLSLPPPPSPH
test_system: Saccharomyces cerevisiae;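 also: PSI is a weighted mean of sequencing reads over stability bins, variants kept only with over 10 reads, mCherry proximal and sfGFP distal, peptide attached via GGGS linker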
protein stability index: 0.696
